Entries annotated with measured TGI
System: HS 578T breast
Method Description: NCI tumour cell line growth inhibition, 48 h

[
  {
    "Molecule": "Cc1cc(C)nc(SC2=C(Nc3cccc(Cl)c3)C(=O)N(Cc3ccccc3)C2=O)n1",
    "TGI": "> 170 µM"
  },
  {
    "Molecule": "COc1cc(C(=O)n2nc(N3CCN(C)CC3)c3cc(N)ccc32)cc(OC)c1OC",
    "TGI": "> 100 µM"
  },
  {
    "Molecule": "CC1(C)OC(=O)CC12CCN(Cc1ccccc1)CC2",
    "TGI": "> 100 µM"
  },
  {
    "Molecule": "CN(C)CCN1C(=O)c2ccccc2C1(O)c1ccc(Cl)cc1 (stereo not given)",
    "TGI": "> 100 µM"
  },
  {
    "Molecule": "C/C(=C\\c1c[nH]c2ccccc12)[N+](=O)[O-]",
    "TGI": "43.8 µM"
  },
  {
    "Molecule": "O=C(/C=C/c1ccccc1)CCC1C(=O)NC(=O)NC1=O",
    "TGI": "> 100 µM"
  },
  {
    "Molecule": "CN(CCC(=O)O)S(=O)(=O)c1ccccc1",
    "TGI": "> 100 µM"
  },
  {
    "Molecule": "O=C(Nc1ccc(Br)c(Cl)c1)c1cc(F)ccc1O",
    "TGI": "> 15.5 µM"
  },
  {
    "Molecule": "O=C(O)CC1(C(=O)O)CCCCC1",
    "TGI": "> 100 µM"
  },
  {
    "Molecule": "CC(C)(O)[C@H]1[C@@H]2OC(=O)[C@H]1[C@]1(O)C[C@H]3OC34C(=O)O[C@H]2[C@@]41C (stereo not given in full) (tested in a mixture with another compound)",
    "TGI": "> 100 µM"
  }
]
